EXPERIMENT_NOTES: Stability of analytes in rat plasma under various storage conditions
Assay type: in vitro ADME
COND: rat plasma, storage for 2 weeks, medium QC spiked concentration
REPORTED_ENDPOINT: Stability Long-Term (% RE)
Answers are plain numbers, in % RE.

# annotated cases, reported Stability Long-Term shown
>  <MOLECULE>
C=C1[C@H]2C3=CC[C@@H]4[C@@]5(C)C[C@@H](O)[C@@H](O)C(C)(C)[C@@H]5CC[C@@]4(C)[C@]3(C)CC[C@@]2(C(=O)O[C@@H]2O[C@H](CO)[C@@H](O)[C@H](O)[C@H]2O)CC[C@H]1C [VI, alpinoside]

>  <Stability Long-Term [% RE]>
2.79

$$$$
>  <MOLECULE>
C[C@@H]1CC[C@]2(C(=O)O[C@@H]3O[C@H](CO)[C@@H](O)[C@H](O)[C@H]3O)CC[C@]3(C)C(=CC[C@@H]4[C@@]5(C)C[C@@H](O)[C@H](O)C(C)(C)[C@@H]5CC[C@]43C)[C@@H]2[C@]1(C)O

>  <Stability Long-Term [% RE]>
2.71

$$$$
>  <MOLECULE>
CC1CCC2(C(=O)O)CCC3(C)C(=CCC4C5(C)C(O)C(O)C(O)C(C)(C)C5CCC43C)C2C1(C)O (stereo not drawn) [V, 1β-hydroxyeuscaphic acid]

>  <Stability Long-Term [% RE]>
6.95

$$$$

Batch request: Stability Long-Term per item, same order as input.
1. CC1=C2C3=CCC4C5(C)CCC(OC6OCC(O)C(O)C6O)C(C)(C)C5CCC4(C)C3(C)CCC2(C(=O)OC2OC(CO)C(O)C(O)C2O)CCC1C (stereo not drawn)
2. CC1CCC2(C(=O)OC3OC(CO)C(O)C(O)C3O)CCC3(C)C(=CCC4C5(C)CCC(O)C(C)(C)C5CCC43C)C2C1(C)O (stereo not drawn)
3. C[C@@H]1CC[C@]2(C(=O)O[C@@H]3O[C@H](CO)[C@@H](O)[C@H](O)[C@H]3O)CC[C@]3(C)C(=CC[C@@H]4[C@@]5(C)CC[C@H](O[C@@H]6OC[C@H](O)[C@H](O)[C@H]6O)C(C)(C)[C@@H]5CC[C@]43C)[C@@H]2[C@]1(C)O [I, ziyuglycoside I]

stdout:
1: −5.18; 2: 2.08; 3: −6.57

* * *

EXPERIMENT_NOTES: Pharmacokinetic study in rats after single oral administration of S. officinalis extract (UHPLC-MS/MS of plasma)
Assay type: in vivo, Sprague-Dawley rats
COND: rats, after oral administration of S. officinalis extract, Figure 4
REPORTED_ENDPOINT: time of first peak of mean plasma concentration-time curve (double-peak phenomenon)

Batch request: time of first peak of mean plasma concentration-time curve (double-peak phenomenon) per item, same order as input.
1. C=C1[C@H]2C3=CC[C@@H]4[C@@]5(C)C[C@@H](O)[C@@H](O)C(C)(C)[C@@H]5CC[C@@]4(C)[C@]3(C)CC[C@@]2(C(=O)O[C@@H]2O[C@H](CO)[C@@H](O)[C@H](O)[C@H]2O)CC[C@H]1C [VI, alpinoside]
2. CC1=C2C3=CCC4C5(C)CCC(OC6OCC(O)C(O)C6O)C(C)(C)C5CCC4(C)C3(C)CCC2(C(=O)OC2OC(CO)C(O)C(O)C2O)CCC1C (stereo not shown)
3. C[C@@H]1CC[C@]2(C(=O)O[C@@H]3O[C@H](CO)[C@@H](O)[C@H](O)[C@H]3O)CC[C@]3(C)C(=CC[C@@H]4[C@@]5(C)CC[C@H](O[C@@H]6OC[C@H](O)[C@H](O)[C@H]6O)C(C)(C)[C@@H]5CC[C@]43C)[C@@H]2[C@]1(C)O [I, ziyuglycoside I]

stdout:
["0.5 to 1.5 h", "0.25 h", "0.5 to 1.5 h"]

stdin: Give the reported time of first peak of mean plasma concentration-time curve (double-peak phenomenon) for this compound. CC1CCC2(C(=O)OC3OC(CO)C(O)C(O)C3O)CCC3(C)C(=CCC4C5(C)CCC(O)C(C)(C)C5CCC43C)C2C1(C)O (stereo not shown)
stdout: 0.5 to 1.5 h
